target: HCV NS3/4A protease complex, BMS strain (UniProt P27958, C1454S/C1711G, species not given); construct: other: HCV NS3/4A enzyme assay; class symbols; numeric values; fused on or other part: three-lysine solubilising tail at the C-terminus of NS4A; purified on Ni-NTA from the pET21b vector (His tag implied); assay: FRET peptide assay to monitor HCV NS3/4A proteolytic activity (BMS strain); type: biochemical, HCV genotype 1a; conditions: read-out: IC50 Range; HCV NS3/4A enzyme assay; class symbols
pIC50: −log10 of the molar value.
Item-by-item account of pIC50

Use the examples below as a reference point.
smiles.string | pIC50
C=C[C@@H]1C[C@]1(NC(=O)[C@@H]1C[C@@H](Oc2ncc(OC)c3ccc(Cl)cc23)CN1C(=O)[C@@H](Nc1nc(-c2cc(OC)ccc2OC)cs1)C(C)(C)C)C(=O)NS(=O)(=O)C1CC1 | 7.70 to 9.00
C=C[C@@H]1C[C@]1(NC(=O)[C@@H]1C[C@@H](Oc2ncc(OC)c3ccc(Cl)cc23)CN1C(=O)[C@@H](Nc1nc(-c2ccc(F)c(Cl)c2)cs1)C(C)(C)C)C(=O)NS(=O)(=O)C1CC1 | 7.70 to 9.00

Prompt line: Fill: pIC50 (HCV NS3/4A protease complex, BMS strain (UniProt P27958, C1454S/C1711G, species not given)) for this molecule `C=C[C@@H]1C[C@]1(NC(=O)[C@@H]1C[C@@H](Oc2cc(-c3ccccc3)nc3cc(OC)ccc23)CN1C(=O)[C@@H](Nc1nc(-c2cccc(OC)c2)cs1)C(C)(C)C)C(=O)NS(=O)(=O)C1CC1`
Response line: 7.70 to 9.00
